Provenance of the data: PubChem BioAssay (NCI)

Test system: CAKI-1 renal
Test: NCI-60 one-dose screen, 48 h (100 = growth as untreated, 0 = no growth, -100 = all killed)
Conditions: 10 µM
Compounds without any hit were thinned out: in the full panel of roughly 83,000, 20% have a hit.
observed_property: growth (%)
Hi! Could you send only the number? It should be in %, unit omitted.

Ask | Enter measured growth, system CAKI-1 renal, for the compound shown: C/C(=C(/C)C1CC1CCN(C(=O)c1ccc([N+](=O)[O-])cc1)S(=O)(=O)c1ccc(C)cc1)C1CCCCC1 (stereo unspecified)
Reply | 84.9

Ask | Enter measured growth, system CAKI-1 renal, for the compound shown: `COc1cc(/C=C2\SC(=O)NC2=O)ccc1OCC(=O)Nc1ccc(C(=O)/C=C/c2cc3ccccc3nc2Cl)cc1`
Reply | 80.3

Ask | Enter measured growth, system CAKI-1 renal, for the compound shown: `COc1ccc(Cn2cc3c(c2-c2ccccc2)CCCc2cnoc2-3)cc1[N+](=O)[O-]`
Reply | 50.5

Ask | Enter measured growth, system CAKI-1 renal, for the compound shown: `O=S(=O)(Nc1ccc(-n2cnc3cc(-c4ccc(O)cc4)ccc32)cc1)C1CC1`
Reply | 66.3

Ask | Enter measured growth, system CAKI-1 renal, for the compound shown: `C#C[C@]1(O)CC[C@H]2[C@@H]3CC=C4c5sc(Nc6ccncc6)nc5CC[C@]4(C)[C@H]3CC[C@@]21C`
Reply | -19.4

Ask | Enter measured growth, system CAKI-1 renal, for the compound shown: CN1C(=O)N(C)C2C1NN=c1s/c(=C\c3ccccn3)c(=O)n12 (stereo unspecified)
Reply | 100

Ask | Enter measured growth, system CAKI-1 renal, for the compound shown: CC1OC(O[C@@H]2C(O)C(CO)OC(O[C@H]3COC(O[C@H]4CC[C@]5(C)[C@H]6CC[C@]78OC[C@@]9(CC[C@](C)(C=O)C[C@H]97)[C@H](O)C[C@@]8(C)[C@]6(C)CC[C@H]5C4(C)C)[C@@H](OC4OC(CO)[C@@H](O)[C@@H](O)[C@@H]4O)[C@@H]3O)[C@H]2OC2OC[C@@H](O)[C@@H](O)[C@@H]2O)[C@@H](O)[C@@H](O)[C@H]1O (stereo partly specified)
Reply | -80.7

Ask | Enter measured growth, system CAKI-1 renal, for the compound shown: `O=C(NNc1nc2cc(F)c(F)cc2n2cccc12)c1ccncn1`
Reply | 17.2

Ask | Enter measured growth, system CAKI-1 renal, for the compound shown: `COc1ccc2c(C3=C(c4cn(C)c5ccccc45)C(=O)NC3=O)coc2c1`
Reply | 42

Ask | Enter measured growth, system CAKI-1 renal, for the compound shown: `COc1ccc2c(ccn2C(=O)N2c3ccccc3Sc3ccccc32)c1`
Reply | 30.9

Ask | Enter measured growth, system CAKI-1 renal, for the compound shown: `NC(=O)c1c(NC(=O)c2cccc(OC(F)(F)F)c2)sc2c1CCC(=O)C2`
Reply | 45.7

Ask | Enter measured growth, system CAKI-1 renal, for the compound shown: `CCc1ccc(NC(=O)N[C@@H](Cc2cc(F)cc(F)c2)C(=O)N[C@@H]2C(=O)N3CCC[C@H]3C(=O)N3CCO[C@H](C)[C@H]3C(=O)N[C@@H](CO)C(=O)N3C[C@H](C)C[C@H]3C(=O)O[C@H]2C)c(F)c1`
Reply | 20.3

Ask | Enter measured growth, system CAKI-1 renal, for the compound shown: `c1cncc(-c2cn3nc(-c4c[nH]c5ccccc45)sc3n2)c1`
Reply | 51.7

Ask | Enter measured growth, system CAKI-1 renal, for the compound shown: `O=C(NNc1nc2cc(F)cc(F)c2n2cccc12)c1ncccn1`
Reply | 17.4

Ask | Enter measured growth, system CAKI-1 renal, for the compound shown: `CN(C)c1ncc(/C=C2\SC(=S)N(Cc3ccccc3Cl)C2=O)s1`
Reply | 79.1

Ask | Enter measured growth, system CAKI-1 renal, for the compound shown: `O=c1cc(-c2ccccc2)nc2sc(-c3c[nH]c4ccc(F)cc34)nn12`
Reply | 60.5
